B1: library; numbered along this chain (parent)
chain: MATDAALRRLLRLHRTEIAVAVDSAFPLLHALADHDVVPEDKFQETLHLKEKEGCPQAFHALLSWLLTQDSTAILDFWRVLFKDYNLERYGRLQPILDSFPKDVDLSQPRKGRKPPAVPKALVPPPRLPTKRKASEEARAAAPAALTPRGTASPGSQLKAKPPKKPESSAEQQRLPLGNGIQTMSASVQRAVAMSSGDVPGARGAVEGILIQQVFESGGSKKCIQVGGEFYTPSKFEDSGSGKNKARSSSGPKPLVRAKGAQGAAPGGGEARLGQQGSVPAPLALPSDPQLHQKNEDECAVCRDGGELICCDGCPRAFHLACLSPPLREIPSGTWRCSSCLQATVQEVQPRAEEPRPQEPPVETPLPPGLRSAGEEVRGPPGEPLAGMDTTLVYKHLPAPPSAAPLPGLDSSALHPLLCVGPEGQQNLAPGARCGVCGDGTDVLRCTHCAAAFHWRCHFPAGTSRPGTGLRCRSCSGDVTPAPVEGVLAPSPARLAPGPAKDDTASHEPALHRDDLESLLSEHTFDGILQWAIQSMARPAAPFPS

Variants of: B1
Assay notes: AIRE transcriptional activation functional score (insulin promoter-GFP; nonsense median 0, synonymous median 1) (normalised score); higher = higher AIRE activity (more reporter activation)
Condition summary: with insulin promoter-GFP reporter in HEK293
Measurement name: AIRE transcriptional activation functional score

Mutation notation: V206Q
Meas value: 0.0809

Mutation notation: R89L
Meas value: -0.165

Mutation notation: H454I
Meas value: -0.0282

Mutation notation: C310A
Meas value: 0.821

Mutation notation: A58P
Meas value: -0.271

Mutation notation: G267W
Meas value: 1.49

Mutation notation: C437G
Meas value: 0.0855

Mutation notation: S412G
Meas value: 1.03

Mutation notation: I181L
Meas value: 0.717

Mutation notation: A141E
Meas value: 1.49

Mutation notation: E171A
Meas value: 1.77

Mutation notation: G498S
Meas value: 0.556

Mutation notation: R174L
Meas value: 0.495

Mutation notation: G382Q
Meas value: 1.24

Mutation notation: E517Q
Meas value: 0.0484

Mutation notation: P398V
Meas value: 1.31

Mutation notation: E347A
Meas value: 1

Mutation notation: N179A
Meas value: 1.53

Mutation notation: H523L
Meas value: 0.222

Mutation notation: L323A
Meas value: 1.11

Mutation notation: A193F
Meas value: 0.268

Mutation notation: D105E
Meas value: 0.837

Mutation notation: A58C
Meas value: -0.141

Mutation notation: V256P
Meas value: 0.878

Mutation notation: V436P
Meas value: 0.39

Mutation notation: L323V
Meas value: 1.21

Mutation notation: W65R
Meas value: -0.313

Mutation notation: V118T
Meas value: 0.667

Mutation notation: A58D
Meas value: 0.158

Mutation notation: A144E
Meas value: 0.655

Mutation notation: S153L
Meas value: 1.16
